System: BC4-M5M12
Assay details: Test B greenhouse phytotoxicity, BC4-M5M12
Format: in vivo, sunflower
Protocol conditions: in vivo
Where a name gives a salt, the structure may show the parent alone.
Threshold rule: Maximum Phytotoxicity greater than or equal to 50% is YES; below that, NO.

Solved cases below.
Compound: COc1cc(OC)nc(NC(=O)NS(=O)(=O)N(C)S(C)(=O)=O)n1
Qualitative label: YES

Compound: CCc1cnc(C2=NC(C)(C(C)C)C(=O)N2)c(C(=O)O)c1 (centres unmarked) [Imazethapyr (ammonium salt), Imazethapyr]
Qualitative label: NO

Compound: COc1cc(OC)nc(Sc2cccc(Cl)c2C(=O)O)n1 [Pyrithiobac-sodium]
Qualitative label: NO

Compound: CCS(=O)(=O)c1cccnc1S(=O)(=O)NC(=O)Nc1nc(OC)cc(OC)n1
Qualitative label: YES

Compound: COc1nc(C)nc(NC(=O)NS(=O)(=O)c2ccccc2Cl)n1
Qualitative label: NO

# evaluate next
Exam item: Check this compound for Maximum Phytotoxicity at or above 50%: "COC(=O)c1ccccc1S(=O)(=O)NC(=O)N(C)c1nc(C)nc(OC)n1"
Marked response: NO
